Reference for the values: patent US20110262561A1

system: H460; assay: Alamar blue cytotoxicity assay on H460 cancer cells; assay type: cell-based, human; settings: Homo sapiens, NCI-H460; alamar blue, 48 hours treatment
quantity_name: IC50 (µM)

In [3]: df
Out[3]:
                                   compound  unit_label  qualifying_sign  numeric_value
0  COc1cc(O)c(C(=O)O[C@@H]2C[C@]3(C)C4C(C=C(C=O)[C@]23O)CC(C)(C)[C@@H]4O)c(C)c1Cl (stereo partly drawn)          µM                =            5.7
1  Cc1c(Cl)c(O)cc(O)c1C(=O)O[C@@H]1C[C@]2(C)[C@H]3CC(C)(C)C[C@@]3(O)C=C(C=O)[C@]12O          µM                >            100
2  Cc1c(Cl)c(O)cc(O)c1C(=O)OCC1=C[C@@H]2CC(C)(C)C[C@@H]2[C@@]2(C)C[C@@H](O)[C@@]12O          µM                =            5.5
3  COc1cc(O)c(C(=O)O[C@@H]2C[C@@]3(C)C2=C(C=O)C=C2CC(C)(C)C[C@@H]23)c(C)c1Cl          µM                =            5.5
4  COc1cc(O)c(C(=O)O[C@@H]2C[C@]3(C)C4CC(C)(C)CC4C=C(C=O)[C@]23O)c(C)c1Cl (stereo partly drawn)          µM                =            4.5
5  COc1cc(O)c(C(=O)O[C@@H]2C[C@]3(C)C4[C@@H](O)C(C)(C)C[C@@]4(O)C=C(C=O)[C@]23O)c(C)c1Cl (stereo partly drawn)          µM                >            100
6  Cc1cc(O)cc(O)c1C(=O)O[C@@H]1C[C@]2(C)C3CC(C)(C)CC3C=C(CO)[C@]12O (stereo partly drawn)          µM                =            5.1
7  Cc1c(Cl)c(O)cc(O)c1C(=O)O[C@@H]1C[C@]2(C)C3CC(C)(C)CC3C=C(CO)[C@]12O (stereo partly drawn)          µM                =            4.5
8  Cc1c(Cl)c(O)cc(O)c1C(=O)O[C@@H]1C[C@]2(C)C3[C@@H](O)C(C)(C)C[C@@]3(O)C=C(C=O)[C@]12O (stereo partly drawn)          µM                >            100
